target: mutEGFR (D770_N771insSVD) (Homo sapiens, UniProt P00533, DUP768-770); construct: GST-EGFR #3 (SVD between D770 and N771); made in house; host or cells: Sf9 insect cells (baculovirus); test: Exon20-Mutant-EGFR (D770_N771insSVD) kinase assay (TR-FRET); type: biochemical; conditions: mutEGFR (D770_N771insSVD) kinase assay IC50, Table 2a; D770_N771insSVD; 2 mM ATP
Sequence (P00533 with tags, fused parts or gaps DUP768-770): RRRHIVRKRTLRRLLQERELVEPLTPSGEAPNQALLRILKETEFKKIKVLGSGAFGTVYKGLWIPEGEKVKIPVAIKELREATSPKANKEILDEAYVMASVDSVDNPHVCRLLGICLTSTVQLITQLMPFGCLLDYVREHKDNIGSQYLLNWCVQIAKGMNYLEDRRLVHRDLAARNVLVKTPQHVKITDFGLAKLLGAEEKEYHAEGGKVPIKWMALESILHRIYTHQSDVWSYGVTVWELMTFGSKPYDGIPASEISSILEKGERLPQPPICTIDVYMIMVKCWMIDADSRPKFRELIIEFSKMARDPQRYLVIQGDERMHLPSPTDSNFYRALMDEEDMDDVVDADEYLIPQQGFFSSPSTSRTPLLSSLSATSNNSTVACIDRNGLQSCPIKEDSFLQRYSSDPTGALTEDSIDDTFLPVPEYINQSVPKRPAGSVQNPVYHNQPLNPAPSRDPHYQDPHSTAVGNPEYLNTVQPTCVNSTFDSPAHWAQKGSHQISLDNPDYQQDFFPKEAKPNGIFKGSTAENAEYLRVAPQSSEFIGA
pIC50: −log10 of the molar value.
Range-based classes on measured pIC50: range A = under 8, range B = from 8 up to 9, range C = 9 and over

*Q* Please indicate the class for C=CC(=O)N1Cc2c(-c3ccncc3)c(-c3ccc4sccc4c3)nn2C(C)C1 (racemic) based on its pIC50.
*A* range C

*Q* Please indicate the class for CC1c2c(-c3ccncc3)c(-c3ccc(Cl)cc3F)nn2CCN1C(=O)/C=C/CN(C)C (single isomer, unassigned; isomer 1) [Example 285] based on its pIC50.
*A* range C

*Q* Please indicate the class for O=C(/C=C/CN1CCC1)N1CCn2nc(-c3ccc(Cl)cc3)c(-c3ccncc3)c2C1 based on its pIC50.
*A* range C

*Q* Please indicate the class for C=CC(=O)N1Cc2c(-c3ccncc3)c(-c3ccc(Cl)cc3F)nn2C[C@@H]1C based on its pIC50.
*A* range C

*Q* Please indicate the class for CN(C)C/C=C/C(=O)N1CCn2nc(-c3ccc(C(F)F)cc3)c(-c3ccncc3)c2C1 based on its pIC50.
*A* range B

*Q* Please indicate the class for C=CC(=O)N1CCn2nc(Nc3ccc(C(F)(F)F)cc3)c(-c3ccncc3)c2C1 based on its pIC50.
*A* range A

*Q* Please indicate the class for COCCN(C)C/C=C/C(=O)N1CCn2nc(-c3ccc(Cl)cc3)c(-c3ccncc3)c2C1 based on its pIC50.
*A* range C

*Q* Please indicate the class for CN(C)C/C=C/C(=O)N1CCn2nc(Nc3ccccc3)c(-c3ccncc3)c2C1 based on its pIC50.
*A* range B

*Q* Please indicate the class for C=CC(=O)N1CCn2nc(-c3ccccc3Cl)c(-c3ccnc4[nH]cc(C)c34)c2C1 based on its pIC50.
*A* range A

*Q* Please indicate the class for C=CC(=O)N1Cc2c(-c3ccncc3)c(-c3ccc(F)cc3)nn2CC1(C)C based on its pIC50.
*A* range A

*Q* Please indicate the class for CC1c2c(-c3ccnc4[nH]ccc34)c(-c3ccc(C(F)(F)F)cc3)nn2CCN1C(=O)/C=C/CN(C)C (single isomer, unassigned; isomer 1) [Example 264] based on its pIC50.
*A* range A
